B1: PhoQ; a variant is named by its letters at X, in order, P23837 (parent)
chain: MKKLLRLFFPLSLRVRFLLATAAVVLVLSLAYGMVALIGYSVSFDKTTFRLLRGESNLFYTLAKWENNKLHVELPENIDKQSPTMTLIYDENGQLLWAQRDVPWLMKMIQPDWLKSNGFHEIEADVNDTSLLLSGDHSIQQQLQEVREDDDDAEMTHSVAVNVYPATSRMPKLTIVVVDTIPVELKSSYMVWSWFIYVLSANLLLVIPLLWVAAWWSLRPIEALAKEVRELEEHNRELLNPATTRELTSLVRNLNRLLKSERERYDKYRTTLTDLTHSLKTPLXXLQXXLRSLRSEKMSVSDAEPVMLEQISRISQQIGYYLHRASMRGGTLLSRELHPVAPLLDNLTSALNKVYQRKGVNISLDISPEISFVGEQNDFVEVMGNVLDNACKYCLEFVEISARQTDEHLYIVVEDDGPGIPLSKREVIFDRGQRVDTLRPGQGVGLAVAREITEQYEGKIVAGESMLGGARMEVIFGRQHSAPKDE

# Variants of: B1
# protocolNotes: enrichment ratio after two sorts for PhoP signalling (ratio (wild type AVST 3.29)); higher = more functional
# assaySetup: with PhoP (E. coli)
Whole data set: some 140,000 sequences, median “enrichment ratio after two sorts for PhoP signalling” near 0, cut for the highest 2% near 11. This is one part of a sample in which the highest values are shown more often than they occur.
Listed below: enrichment ratio values for each entry.

1) ADIN :: ≤ 0.25
2) ANTV :: 16.3
3) ASFG :: 1.66
4) VISK :: ≤ 0.25
5) VRSI :: ≤ 0.25
6) ASRK :: ≤ 0.25

Using the record for VHTG , report its enrichment ratio.
≤ 0.25

Item KSMK has what recorded enrichment ratio?
≤ 0.25

What value of enrichment ratio has been recorded for this entry: ASCG
18.9

Please give the measured enrichment ratio for this variant: ASMK
17

Fill in: enrichment ratio of AHTV is ___
≤ 0.25
